Sourced from ChEMBL document CHEMBL4513149

tested on: Staphylococcus aureus; assay: microbe, parasite or virus in culture; conditions: ATCC 43300, 18 h, ASSAY_TEST Inhibition of Bacterial Growth, detection method Absorption (OD600), MEDIA CAMHB, plate type 384well, NBS, CORNING #3640
Description: Antibacterial activity against Staphylococcus aureus MRSA ATCC 43300 (CO-ADD:GP_020); MIC in CAMBH media, using NBS plates, by OD(600)
reported-endpoint: MIC

* c1ccc(-c2nc(NC3CCCCC3)cc(C3CC3)n2)nc1 | 10 µM

The molecule identified as Cn1c(=O)c2c(S(C)(=O)=O)snc2n(C)c1=O registered its MIC at > 10 µM

The molecule identified as c1cncc(NCc2ccc(-c3cc4ccncc4cc3OC3CCNCC3)s2)c1 registered its MIC at > 10 µM

The molecule identified as O=C(Nc1ccccc1)c1ccc(-c2cc3ccncc3cc2OC2CCNCC2)s1 registered its MIC at > 10 µM

The molecule identified as O=C([C@@H](c1ccc(Cl)cc1)c1cccnc1)N1CCN(c2ccc(C(F)(F)F)cc2)CC1 registered its MIC at > 10 µM
